Recorded IC50 for the following compounds
Target: Cytochrome P450 3A4 (Homo sapiens)
Sequence (P08684 whole entry): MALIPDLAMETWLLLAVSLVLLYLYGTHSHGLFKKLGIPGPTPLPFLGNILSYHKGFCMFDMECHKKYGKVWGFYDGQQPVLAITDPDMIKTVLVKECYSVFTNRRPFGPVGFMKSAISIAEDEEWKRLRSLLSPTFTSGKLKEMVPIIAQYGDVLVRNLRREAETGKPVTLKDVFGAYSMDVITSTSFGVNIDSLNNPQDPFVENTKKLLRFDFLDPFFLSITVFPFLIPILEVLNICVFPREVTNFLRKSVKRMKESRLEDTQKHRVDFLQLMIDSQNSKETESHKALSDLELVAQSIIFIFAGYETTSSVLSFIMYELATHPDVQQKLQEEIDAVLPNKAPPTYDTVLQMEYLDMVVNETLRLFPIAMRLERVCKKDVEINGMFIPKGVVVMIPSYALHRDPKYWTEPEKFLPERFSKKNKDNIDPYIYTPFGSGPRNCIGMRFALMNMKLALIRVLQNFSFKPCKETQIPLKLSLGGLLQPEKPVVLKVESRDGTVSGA

Some compounds with known IC50 results, for comparison:
- CCCN(C)CCC1=C(Cc2cnccn2)c2ccccc2C1: 4.04 µM
- C[C@H](C1=C(CCN(C)CC2CCOCC2)Cc2ccccc21)c1cnccn1: > 10 µM
- c1ccc2c(c1)CC(CCN1CCCC1)=C2Cc1cnccn1: > 10 µM
- C[C@H](C1=C(CCN(C)CCC#N)Cc2ccccc21)c1cnccn1: > 10 µM
- C[C@H](C1=C(CCN(C)CCC(F)(F)F)Cc2ccccc21)c1cnccn1: > 5 µM

Please turn your attention to the following entry.
Prompt line: # lookup: IC50 of `C[C@H](C1=C(CCN(C)CCF)Cc2ccccc21)c1cnccn1`
Response line: > 10 µM

* * *

Assay: Drug uptake in rat brain at 1 mg/kg, iv after 4 hrs
Type: ADME, organism-based
Design: dose 1 mg/kg, route intravenous
Conditions: read-out: Drug uptake
METRIC_NAME: concentration at 4 h (ng/g)
Hi! Could you send only the number? It should be in ng/g, unit omitted.

Prompt line: # lookup: concentration at 4 h of FC1CCN(CCC2=C(Cc3cnccn3)c3ccccc3C2)C1 (stereo unspecified)
Response line: 57

* * *

Biological target: Histamine H1 receptor (Homo sapiens)
pKi: −log10 of the molar value.
Binary classification by pKi, with 8 as an inclusive lower bound for TRUE; all other cases are FALSE.

• C[C@H](C1=C(CCN(C)Cc2cnccn2)Cc2ccccc21)c1cnccn1 = FALSE
• CCCN(C)CCC1=C(Cc2cnccn2)c2ccccc2C1 = FALSE
• FC1(F)CCN(CCC2=C(Cc3cnccn3)c3ccccc3C2)C1 = FALSE

Prompt line: For this compound, is measured pKi 8 or higher? `FC1(F)CN(CCC2=C(Cc3cnccn3)c3ccccc3C2)C1`
Response line: FALSE

Prompt line: Moving on to `C[C@H](C1=C(CCN(C)Cc2ccncc2)Cc2ccccc21)c1cnccn1`
Response line: TRUE

Prompt line: Moving on to `c1ccc2c(c1)CC(CCN1CCCC1)=C2Cc1cnccn1`
Response line: TRUE

Prompt line: Moving on to `C[C@H](C1=C(CCN(C)Cc2nccs2)Cc2ccccc21)c1cnccn1`
Response line: FALSE

* * *

Quick note: these are pIC50 numbers for system: Cytochrome P450 2D6 (Homo sapiens)
Sequence (P10635 whole entry): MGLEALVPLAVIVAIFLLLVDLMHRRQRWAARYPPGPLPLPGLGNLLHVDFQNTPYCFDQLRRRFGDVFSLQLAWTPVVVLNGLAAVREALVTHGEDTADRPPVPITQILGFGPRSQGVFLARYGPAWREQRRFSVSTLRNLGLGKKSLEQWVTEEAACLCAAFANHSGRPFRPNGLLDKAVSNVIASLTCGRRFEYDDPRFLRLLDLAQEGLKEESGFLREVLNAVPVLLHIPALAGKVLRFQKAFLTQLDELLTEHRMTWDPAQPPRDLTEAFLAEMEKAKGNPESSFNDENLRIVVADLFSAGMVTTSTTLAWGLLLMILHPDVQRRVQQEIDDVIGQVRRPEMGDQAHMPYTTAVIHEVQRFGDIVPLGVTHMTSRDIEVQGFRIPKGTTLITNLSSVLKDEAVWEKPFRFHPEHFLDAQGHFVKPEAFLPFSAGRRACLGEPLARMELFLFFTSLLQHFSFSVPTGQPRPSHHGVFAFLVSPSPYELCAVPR
Interpret pIC50 as the negative base-10 log of the concentration measured in mol/L.

- FC1(F)CCN(CCC2=C(Cc3cnccn3)c3ccccc3C2)C1: 5.12
- FC1CN(CCC2=C(Cc3cnccn3)c3ccccc3C2)C1: 5.19
- C[C@H](C1=C(CCN(C)CCC(F)(F)F)Cc2ccccc21)c1cnccn1: 5.14
- C[C@H](C1=C(CCN(C)Cc2nccn2C)Cc2ccccc21)c1cnccn1: 5.25
- C[C@H](C1=C(CCN(C)Cc2cccs2)Cc2ccccc21)c1cnccn1: 5.85

Prompt line: # lookup: pIC50 of `CCCN(C)CCC1=C(Cc2cnccn2)c2ccccc2C1`
Response line: 6.01

Prompt line: Moving on to `c1ccc2c(c1)CC(CCN1CCCC1)=C2Cc1cnccn1`
Response line: 5.47

Prompt line: Moving on to `C[C@H](C1=C(CCN(C)CC2CCOCC2)Cc2ccccc21)c1cnccn1`
Response line: 5.03

Prompt line: Moving on to `C[C@H](C1=C(CCN(C)Cc2ccccn2)Cc2ccccc21)c1cnccn1`
Response line: 5.24

* * *

Quick note: these are Ki numbers for system: Histamine H1 receptor (Homo sapiens, UniProt P35367)
Sequence (P35367 whole entry): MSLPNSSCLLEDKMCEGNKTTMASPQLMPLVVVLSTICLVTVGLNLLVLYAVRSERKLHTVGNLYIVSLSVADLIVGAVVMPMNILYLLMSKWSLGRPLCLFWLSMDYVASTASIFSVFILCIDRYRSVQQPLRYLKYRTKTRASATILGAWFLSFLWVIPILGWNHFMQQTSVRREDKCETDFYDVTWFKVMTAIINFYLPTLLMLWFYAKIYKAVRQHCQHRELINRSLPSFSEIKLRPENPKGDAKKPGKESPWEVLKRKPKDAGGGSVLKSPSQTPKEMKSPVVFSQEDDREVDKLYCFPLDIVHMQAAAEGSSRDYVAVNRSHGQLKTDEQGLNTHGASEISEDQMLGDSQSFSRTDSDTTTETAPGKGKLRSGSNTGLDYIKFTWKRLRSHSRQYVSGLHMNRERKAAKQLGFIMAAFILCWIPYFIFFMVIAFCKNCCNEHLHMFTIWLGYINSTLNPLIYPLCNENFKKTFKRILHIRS
Hi! Could you send only the number? It should be in nM, unit omitted.

Some compounds with known Ki results, for comparison:
• CCN(C)CCC1=C(Cc2cnccn2)c2ccccc2C1 = 7.2
• C[C@H](C1=C(CCN(C)Cc2ccccn2)Cc2ccccc21)c1cnccn1 = 13.9
• FC1CCN(CCC2=C(Cc3cnccn3)c3ccccc3C2)C1 (centres undefined) = 10.5

Please turn your attention to the following entry.
Prompt line: Form: Entry = `C[C@H](C1=C(CCN(C)Cc2ncc[nH]2)Cc2ccccc21)c1cnccn1` | System = Histamine H1 receptor (Homo sapiens, UniProt P35367) | Ki = ____
Response line: 8.8
